Parameter: MIC. Scope: all listed entries.
Tested on: Candida albicans
ASSAY PROCEDURE: Antifungal activity against Candida albicans MTCC 227 by broth microdilution method
Format: functional
Give the number; µg/mL is assumed, so skip it.

Some compounds with recorded MIC:
Task item: Fill in the blank: the reported MIC of Cc1ccc(NN2C(N)=C(C#N)C(c3cc4cc(C)ccc4nc3Cl)C3=C2CC(C)(C)CC3=O)cc1 (stereo not given) is ____.
Reply: 500

Task item: Which measured MIC value corresponds to CC1(C)CC(=O)C2=C(C1)N(Nc1ccccc1)C(N)=C(C#N)C2c1cc2cc(Cl)ccc2nc1Cl (stereo not given) ?
Reply: 1000

Task item: Could you share which MIC value was measured for COc1ccc(NN2C(N)=C(C#N)C(c3cc4cc(Cl)ccc4nc3Cl)C3=C2CC(C)(C)CC3=O)cc1 (stereo not given) ?
Reply: 100

Consider the additional compound presented here.
Task item: Query (compound): Cc1ccc(NN2C(N)=C(C#N)C(c3cc4ccccc4nc3Cl)C3=C2CC(C)(C)CC3=O)cc1 (stereo not given) ; field requested: MIC
Reply: 500

====

Test system: Plasmodium falciparum
ASSAY PROCEDURE: Antimalarial activity against trophozoite stage of chloroquine-sensitive Plasmodium falciparum 3D7 infected in human erythrocytes after 48 hrs
Assay type: functional, organism-based
STATED CONDITIONS: 3D7, 48 h
Exam item: assign yes to entries whose IC50 is below 0.05 µg/mL and no to entries at or above 0.05 µg/mL. Note that a value of exactly 0.05 µg/mL receives no.

Answered cases to consult:
Task item: Given the entry CC1(C)CC(=O)C2=C(C1)N(Nc1ccc(F)cc1)C(N)=C(C#N)C2c1cc2ccccc2nc1Cl (stereo not given) , would its reported IC50 be below 0.05 µg/mL?
Reply: yes

Task item: Please check: IC50 for COc1ccc2nc(Cl)c(C3C(C#N)=C(N)N(Nc4ccc(F)cc4)C4=C3C(=O)CC(C)(C)C4)cc2c1 (stereo not given) , strictly under 0.05 µg/mL or not?
Reply: no

Task item: Please determine if COc1ccc2nc(Cl)c(C3C(C#N)=C(N)N(Nc4ccccc4)C4=C3C(=O)CC(C)(C)C4)cc2c1 (stereo not given) is below 0.05 µg/mL in terms of IC50.
Reply: no

Task item: Hello, is IC50 of the following compound strictly smaller than 0.05 µg/mL? CC1(C)CC(=O)C2=C(C1)N(Nc1ccccc1)C(N)=C(C#N)C2c1cc2ccccc2nc1Cl (stereo not given)
Reply: yes

Task item: # strict comparison: is reported IC50 < 0.05 µg/mL? input = `C=C[C@H]1CN2CC[C@H]1C[C@H]2[C@H](O)c1ccnc2ccc(OC)cc12`
Reply: no

Task item: Lab log: compare recorded IC50 with 0.05 µg/mL; is it strictly lower for COc1ccc(NN2C(N)=C(C#N)C(c3cc4cc(Cl)ccc4nc3Cl)C3=C2CC(C)(C)CC3=O)cc1 (stereo not given) ?
Reply: yes

Task item: # check: IC50 < 0.05 µg/mL for COc1ccc2nc(Cl)c(C3C(C#N)=C(N)N(Nc4ccc(C)cc4)C4=C3C(=O)CC(C)(C)C4)cc2c1 (stereo not given)
Reply: no

Task item: # strict comparison: is reported IC50 < 0.05 µg/mL? input = CC1(C)CC(=O)C2=C(C1)N(Nc1ccc(Br)cc1)C(N)=C(C#N)C2c1cc2ccccc2nc1Cl (stereo not given)
Reply: no

Task item: Strictly below 0.05 µg/mL: is that where IC50 of Cc1ccc(NN2C(N)=C(C#N)C(c3cc4cc(Cl)ccc4nc3Cl)C3=C2CC(C)(C)CC3=O)cc1 (stereo not given) sits?
Reply: yes

Task item: Field: below-cutoff. Rule: recorded IC50 strictly less than 0.05 µg/mL. Subject: Cc1ccc2nc(Cl)c(C3C(C#N)=C(N)N(Nc4ccccc4)C4=C3C(=O)CC(C)(C)C4)cc2c1 (stereo not given)
Reply: no

Next:
Task item: Input COc1ccc2nc(Cl)c(C3C(C#N)=C(N)N(Nc4ccc(Br)cc4)C4=C3C(=O)CC(C)(C)C4)cc2c1 (stereo not given) ; condition: IC50 strictly below 0.05 µg/mL. Does it hold?
Reply: yes

====

Tested on: Candida albicans
ASSAY PROCEDURE: Antifungal activity against Candida albicans MTCC 227 by broth microdilution method
Assay type: functional
RECORDED ENDPOINT: MIC (µg/mL)
// return numeric value only (unit: µg/mL, not printed)

Task item: Param item = COc1ccc(NN2C(N)=C(C#N)C(c3cc4cc(OC)ccc4nc3Cl)C3=C2CC(C)(C)CC3=O)cc1 (stereo not drawn) ; retrieve measured MIC.
Reply: 500

Task item: Which MIC is listed for CC1(C)CC(=O)C2=C(C1)N(Nc1ccccc1)C(N)=C(C#N)C2c1cc2ccccc2nc1Cl (stereo not drawn) ?
Reply: 500

Task item: # query: MIC of entry Cc1ccc(NN2C(N)=C(C#N)C(c3cc4cc(Cl)ccc4nc3Cl)C3=C2CC(C)(C)CC3=O)cc1 (stereo not drawn)
Reply: 500

***
Task item: Quick one: MIC of COc1ccc2nc(Cl)c(C3C(C#N)=C(N)N(Nc4ccccc4)C4=C3C(=O)CC(C)(C)C4)cc2c1 (stereo not drawn) ?
Reply: 250

Task item: Returns the measured MIC for the input compound. Input: COc1ccc2nc(Cl)c(C3C(C#N)=C(N)N(Nc4ccc(C)cc4)C4=C3C(=O)CC(C)(C)C4)cc2c1 (stereo not drawn)
Reply: 500

Task item: Look up MIC for this compound: COc1ccc2nc(Cl)c(C3C(C#N)=C(N)N(Nc4ccc(Br)cc4)C4=C3C(=O)CC(C)(C)C4)cc2c1 (stereo not drawn)
Reply: 1000

Task item: Reported MIC for Cc1ccc2nc(Cl)c(C3C(C#N)=C(N)N(Nc4ccc(Br)cc4)C4=C3C(=O)CC(C)(C)C4)cc2c1 (stereo not drawn) : what is it?
Reply: 250

====

System: Candida albicans
ASSAY PROCEDURE: Antifungal activity against Candida albicans MTCC 227 by broth microdilution method
Type: functional
RECORDED ENDPOINT: MIC (µg/mL)
# output: bare number, implied unit µg/mL

Examples with answers:
Task item: // lookup MIC for CC1(C)CC(=O)C2=C(C1)N(Nc1ccc(F)cc1)C(N)=C(C#N)C2c1cc2ccccc2nc1Cl (centres undefined)
Reply: 1000

Task item: Would you kindly share the measured MIC for Cc1ccc2nc(Cl)c(C3C(C#N)=C(N)N(Nc4ccccc4)C4=C3C(=O)CC(C)(C)C4)cc2c1 (centres undefined) ?
Reply: 500

Lab note: next molecule to report on.
Task item: Any idea what MIC was measured for COC1=CC(=O)C[C@@H](C)[C@]12Oc1c(Cl)c(OC)cc(OC)c1C2=O [GRISEOFULVIN] ?
Reply: 500

====

System: Candida albicans
ASSAY PROCEDURE: Antifungal activity against Candida albicans MTCC 227 by broth microdilution method
Format: functional
RECORDED ENDPOINT: MIC (µg/mL)
Write down the numeric answer in µg/mL and omit the unit.

Below are worked cases with known answers.
Task item: Report MIC for Cc1ccc2nc(Cl)c(C3C(C#N)=C(N)N(Nc4ccc(F)cc4)C4=C3C(=O)CC(C)(C)C4)cc2c1 (stereo not drawn) please.
Reply: 1000

Task item: For the compound CC1(C)CC(=O)C2=C(C1)N(Nc1ccc(F)cc1)C(N)=C(C#N)C2c1cc2cc(Cl)ccc2nc1Cl (stereo not drawn) , what MIC is on record?
Reply: 500

Task item: GET /values?readout=MIC&item= COc1ccc2nc(Cl)c(C3C(C#N)=C(N)N(Nc4ccc(F)cc4)C4=C3C(=O)CC(C)(C)C4)cc2c1 (stereo not drawn)
Reply: 250

Task item: Returns the measured MIC for the input compound. Input: Cc1ccc2nc(Cl)c(C3C(C#N)=C(N)N(Nc4ccc(Cl)cc4)C4=C3C(=O)CC(C)(C)C4)cc2c1 (stereo not drawn)
Reply: 500

More entries:
Task item: Could you share which MIC value was measured for CC1(C)CC(=O)C2=C(C1)N(Nc1ccc(Br)cc1)C(N)=C(C#N)C2c1cc2cc(Cl)ccc2nc1Cl (stereo not drawn) ?
Reply: 1000

Task item: Item CC1(C)CC(=O)C2=C(C1)N(Nc1ccc(Cl)cc1)C(N)=C(C#N)C2c1cc2ccccc2nc1Cl (stereo not drawn) has what recorded MIC?
Reply: 250

====

Attribute: MIC
Tested on: Vibrio cholerae
ASSAY PROCEDURE: Antibacterial activity against Vibrio cholerae MTCC 3906 by broth microdilution method
Format: functional
Express your answer in µg/mL, writing the number without its unit.

Answered cases to consult:
Task item: I'd like to know its MIC. The compound in question is CC1(C)CC(=O)C2=C(C1)N(Nc1ccccc1)C(N)=C(C#N)C2c1cc2ccccc2nc1Cl (stereo unspecified)
Reply: 250

Task item: Value lookup for MIC; key = CC1(C)S[C@@H]2[C@H](NC(=O)[C@H](N)c3ccccc3)C(=O)N2[C@H]1C(=O)O [AMPICILLIN]
Reply: 100

Task item: Consider the compound Cc1ccc2nc(Cl)c(C3C(C#N)=C(N)N(Nc4ccc(Br)cc4)C4=C3C(=O)CC(C)(C)C4)cc2c1 (stereo unspecified) and give its measured MIC.
Reply: 250

Task item: State the recorded MIC for this entry: COc1ccc(NN2C(N)=C(C#N)C(c3cc4cc(C)ccc4nc3Cl)C3=C2CC(C)(C)CC3=O)cc1 (stereo unspecified)
Reply: 500

Continuing:
Task item: What MIC value was documented for this compound, COc1ccc2nc(Cl)c(C3C(C#N)=C(N)N(Nc4ccc(C)cc4)C4=C3C(=O)CC(C)(C)C4)cc2c1 (stereo unspecified) ?
Reply: 200

Task item: Entry under review: COc1ccc(NN2C(N)=C(C#N)C(c3cc4cc(OC)ccc4nc3Cl)C3=C2CC(C)(C)CC3=O)cc1 (stereo unspecified) . Reported MIC?
Reply: 62.5

Task item: Which value of MIC has been reported for Cc1ccc2nc(Cl)c(C3C(C#N)=C(N)N(Nc4ccccc4)C4=C3C(=O)CC(C)(C)C4)cc2c1 (stereo unspecified) in the records?
Reply: 250
